SYSTEM TESTED: T1, TNKS1 SAM(E1050K)-CFP (human, UniProt O95271 1030-1089, E1050K)
T1 construct: human tankyrase 1 (TNKS1), sterile alpha-motif (SAM) domain; also called ML surface mutant of the TNKS1 SAM domain; source: E. coli BL21(DE3), purified (IMAC); not shown: mCerulean (CFP), C-terminal, kept
T1 sequence (looked up): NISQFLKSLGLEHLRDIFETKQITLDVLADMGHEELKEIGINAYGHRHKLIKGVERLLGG
ASSAY DETAILS: FRET or BRET; titration for Kd after Song et al.: CFP-fusion kept constant (50 nM to 1.1 µM), YFP-fusion 0-4,000 nM; FRET emission on excitation at 430 nm; assay buffer 10 mM Bis-Tris-Propane pH 7.0, 3% PEG20,000, 0.01% Triton-X100, 0.5 mM TCEP; 384-well plates, 4 replicates; the paper calls the constants an estimation
CONDITION SUMMARY: both partners purified
OUTCOME MEASURE: pKd
Answers are plain numbers, as −log10 of the molar value.

Complete the entry with pKd for TNKS1 SAM(Y1073A)-YFP (domain or fragment, human, UniProt O95271 1030-1089, looked up, human tankyrase 1 (TNKS1), sterile alpha-motif (SAM) domain; also called EH surface mutant of the TNKS1 SAM domain; source: E. coli BL21(DE3), purified (IMAC); not shown: mCitrine (YFP), C-terminal, kept) NISQFLKSLGLEHLRDIFETEQITLDVLADMGHEELKEIGINAAGHRHKLIKGVERLLGG
6.25
